# maps each entry to its MIC
System: Staphylococcus aureus
Assay summary: Antimicrobial activity against methicillin-resistant Staphylococcus aureus 10*3d1 harboring rpoB 621E mutation after 24 hrs by Etest method
Condition description: 10*3d1, 24 h
Quick reminder: number only, in µg/mL, skip the unit.

CO[C@H]1/C=C/O[C@@]2(C)Oc3c(C)c(O)c4c(O)c(c(/C=N/N5CCN(C)CC5)c(O)c4c3C2=O)NC(=O)/C(C)=C\C=C\[C@H](C)[C@H](O)[C@@H](C)[C@@H](O)[C@@H](C)[C@H](OC(C)=O)[C@@H]1C : 0.006
CCCCCCCCCC(=O)N[C@@H](Cc1c[nH]c2ccccc12)C(=O)N[C@H](CC(N)=O)C(=O)N[C@@H](CC(=O)O)C(=O)N[C@@H]1C(=O)NCC(=O)N[C@@H](CCCN)C(=O)N[C@@H](CC(=O)O)C(=O)N[C@H](C)C(=O)N[C@@H](CC(=O)O)C(=O)NCC(=O)N[C@H](CO)C(=O)N[C@@H]([C@H](C)CC(=O)O)C(=O)N[C@@H](CC(=O)c2ccccc2N)C(=O)O[C@@H]1C : 2

Consider the additional compound presented here.
Fill in the blank: the reported MIC of `CN[C@H](CC(C)C)C(=O)N[C@H]1C(=O)N[C@@H](CC(N)=O)C(=O)N[C@H]2C(=O)N[C@H]3C(=O)N[C@H](C(=O)N[C@H](C(=O)O)c4cc(O)cc(O)c4-c4cc3ccc4O)[C@H](O)c3ccc(c(Cl)c3)Oc3cc2cc(c3O[C@@H]2O[C@H](CO)[C@@H](O)[C@H](O)[C@H]2O[C@H]2C[C@](C)(N)[C@H](O)[C@H](C)O2)Oc2ccc(cc2Cl)[C@H]1O` is ____.
3
